All figures here come from patent US11505573B2.

Kindly state IC50 for each of the entries shown.
- Test system: A. baumannii ATCC 17978
- EXPERIMENT: Antimicrobial susceptibility testing: 50% growth inhibitory concentration (IC50) determination in Iso-Sensitest broth
- Format: cell-based
- MEASUREMENT_PARAMETERS: Acinetobacter baumannii; A. baumannii strain ATCC17978; Iso-Sensitest medium; OD 600 nm over 16 h; 35±2° C.; read-out: IC50 ATCC17978 (50% growth inhibition concentration)

Record CN1C(=O)[C@H](CCCN)NC(=O)[C@H](CCCN)NCc2cccnc2Sc2c(F)ccc(-c3ccc(S(=O)(=O)O)cc3)c2CNC(=O)[C@@H]1Cc1c[nH]c2ccccc12 . Reported IC50: 20 nM

Record CN1C(=O)[C@H](CCCCN)NC(=O)[C@H](CCCN)NCc2cccnc2Sc2c(F)ccc(-c3ccc(C(=O)NS(C)(=O)=O)cc3)c2CNC(=O)[C@@H]1Cc1c[nH]c2ccccc12 . Reported IC50: 40 nM

Record CN1C(=O)[C@H](CCCCN)NC(=O)[C@H](CCCN)NCc2cccnc2Sc2c(F)ccc(-c3ccc(-c4nnn[nH]4)cc3)c2CNC(=O)[C@@H]1Cc1c[nH]c2ccccc12 . Reported IC50: 20 nM

---

- System: A. baumannii ATCC 17978
- EXPERIMENT: Antimicrobial susceptibility testing: 50% growth inhibitory concentration (IC50) determination in Iso-Sensitest broth
- Assay type: cell-based
- MEASUREMENT_PARAMETERS: Acinetobacter baumannii; A. baumannii strain ATCC17978; Iso-Sensitest medium; OD 600 nm over 16 h; 35±2° C.; read-out: IC50 ATCC17978 (50% growth inhibition concentration)
MEASURE_NAME: IC50 (nM)
Give the quantity in nM, number only.

Record CN1C(=O)[C@H](CCCCN)NC(=O)[C@H](CCCN)NCc2cccnc2Sc2c(Cl)ccc(-c3ccc(-c4nsc(=O)[nH]4)cc3)c2CNC(=O)[C@@H]1Cc1c[nH]c2ccccc12 . Reported IC50: 80

Record CN1C(=O)[C@H](CCCCNCC(F)F)NC(=O)[C@H](CCCN)NCc2cccnc2Sc2c(Cl)ccc(-c3cnc(O)nc3)c2CNC(=O)[C@@H]1Cc1c[nH]c2ccccc12 . Reported IC50: 300

Record CN1C(=O)[C@H](CCCCN)NC(=O)[C@H](CCCN)NCc2cccnc2Sc2c(Cl)cc(-c3nnn[nH]3)cc2CNC(=O)[C@@H]1Cc1c[nH]c2ccccc12 . Reported IC50: 10000

Record CN1C(=O)[C@H](CCCN)NC(=O)[C@H](CCCN)NCc2cccnc2Sc2c(Cl)ccc(-c3ccc(S(=O)(=O)O)cc3)c2CNC(=O)[C@@H]1Cc1c[nH]c2ccccc12 . Reported IC50: 20

Record CC(=O)NS(=O)(=O)c1ccc(-c2ccc(F)c3c2CNC(=O)[C@H](Cc2c[nH]c4ccccc24)N(C)C(=O)[C@H](CCCCN)NC(=O)[C@H](CCCN)NCc2cccnc2S3)cc1 . Reported IC50: 30

Record CNCCCC[C@@H]1NC(=O)[C@H](CCCO)NCc2cccnc2Sc2c(Cl)ccc(-c3ccc(S(=O)(=O)NC(C)=O)cc3)c2CNC(=O)[C@H](Cc2c[nH]c3ccccc23)N(C)C1=O . Reported IC50: 630

Record CN1C(=O)[C@H](CCCN)NC(=O)[C@H](CCCN)NCc2cccnc2Sc2c(F)ccc(-c3ccc(P(=O)(O)O)cc3)c2CNC(=O)[C@@H]1Cc1c[nH]c2ccccc12 . Reported IC50: 620
